I'd appreciate it if you could supply Kd values for the items below.
study_system: VEGF165 (Homo sapiens, UniProt P15692-4 P15692-4:27-191)
Sequence (P15692 other isoform, or with tags, fused parts or gaps): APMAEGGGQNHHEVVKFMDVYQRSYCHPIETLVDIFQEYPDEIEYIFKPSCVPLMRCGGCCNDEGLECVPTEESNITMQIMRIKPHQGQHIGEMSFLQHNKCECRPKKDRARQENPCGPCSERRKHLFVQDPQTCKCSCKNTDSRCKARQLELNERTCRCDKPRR
assay_overview: filter; 37 C
condition_summary: tags: carrier-free, Sf 21 insect cell expressed, R & D Systems; chain copies: 2 (inferred)
Your answer is read as nM, so omit the unit and give the number.

Task: Given the binder VT30.1 (ssRNA, 2'-F pyrimidines) RNA: GGGAGGACGAUGCGGAACUAGUGAAUGCUUAUACGACCGUGUUGUCAGACGACUCGCCCGA , what is its reported Kd?
Output: 0.01

Task: Requested read-out: Kd. Entry: VT30.54 (ssRNA, 2'-F pyrimidines) RNA: GGGAGGACGAUGCGGGACUAGGUGAAUGCCAAUAUUCUUCUCCGUCAGACGACUCGCCCGA
Output: 0.01

Task: Could you tell me which Kd is on file for VP30.16 (ssRNA, 2'-F pyrimidines) RNA: GGGAGGACGAUGCGGAUGAUCGCGUAGGAAGUAUUGGAAGGCCCUCAGACGACUCGCCCGA ?
Output: 0.006

Task: Fill in: Kd of VP40.9 (ssRNA, 2'-F pyrimidines) RNA: GGGAGGACGAUGCGGGAGCAGAACCGAUAGAAGAAUUGGACGCUCAGCUCCGGGUCAGACGACUCGCCCGA is ___
Output: 0.03

Task: Requested read-out: Kd. Entry: VT30.23 (ssRNA, 2'-F pyrimidines) RNA: GGGAGGACGAUGCGGGAUCACGAUACUUGACGAUUUUCCUCUCCUCAGACGACUCGCCCGA
Output: 0.019
